assay: Intrinsic cytotoxicity against HEK293 cells assessed as reduction in cell viability after 72 hrs by MTT assay; assay type: cell-based; details: human, read-out: IG50
Param label: returns Met when CC50 at 72 h < 30 µM, returns Not met otherwise, including exact equality.

Incoming: Given O=C1CCCc2c1c1c(n2CCCc2ccccc2)-c2ccccc2C1=O , is recorded CC50 at 72 h strictly lower than 30 µM?
Outgoing: Not met

Incoming: Given COc1ccccc1CCn1c2c(c3c1-c1ccccc1C3=O)C(=O)CCC2 , is recorded CC50 at 72 h strictly lower than 30 µM?
Outgoing: Met

Incoming: Given O=C1CC(c2ccccc2)Cc2c1c1c(n2Cc2ccccc2)-c2ccccc2C1=O (centres undefined) , is recorded CC50 at 72 h strictly lower than 30 µM?
Outgoing: Met

Incoming: Given COc1cccc(CCn2c3c(c4c2-c2ccccc2C4=O)C(=O)CCC3)c1 , is recorded CC50 at 72 h strictly lower than 30 µM?
Outgoing: Met

Incoming: Given CC(C)=CCOc1cccc2c1-c1c(c3c(n1C(C)C)CCCC3=O)C2=O , is recorded CC50 at 72 h strictly lower than 30 µM?
Outgoing: Not met

Incoming: Given O=C1CC(c2ccccc2)Cc2c1c1c(n2CCc2ccccc2)-c2ccccc2C1=O (centres undefined) , is recorded CC50 at 72 h strictly lower than 30 µM?
Outgoing: Met

Incoming: Given COc1ccc2c3c([nH]c2c1)[C@H](CC(C)C)N1C(=O)[C@H](CCC(=O)OC(C)(C)C)NC(=O)[C@@H]1C3 , is recorded CC50 at 72 h strictly lower than 30 µM?
Outgoing: Not met

Incoming: Given O=C1c2c(O)ccc(O)c2C(=O)c2c(NCCNCCO)ccc(NCCNCCO)c21 , is recorded CC50 at 72 h strictly lower than 30 µM?
Outgoing: Met

Incoming: Given COc1ccc(CCn2c3c(c4c2-c2ccccc2C4=O)C(=O)CCC3)cc1 , is recorded CC50 at 72 h strictly lower than 30 µM?
Outgoing: Not met

Incoming: Given COc1ccc2[nH]cc(CCNC(=O)c3cc(=O)c4c(OCc5ccc(Br)cc5)cccc4o3)c2c1 , is recorded CC50 at 72 h strictly lower than 30 µM?
Outgoing: Not met

Incoming: Given CCc1c2c(nc3ccc(O)cc13)-c1cc3c(c(=O)n1C2)COC(=O)[C@]3(O)CC [7-ETHYL-10-HYDROXYCAMPTOTHECIN] , is recorded CC50 at 72 h strictly lower than 30 µM?
Outgoing: Met

Incoming: Given CC(C)n1c2c(c3c1-c1ccccc1C3=O)C(=O)C(Cc1ccccc1)(Cc1ccccc1)CC2 , is recorded CC50 at 72 h strictly lower than 30 µM?
Outgoing: Met

Incoming: Given CC1CC(=O)c2c3c(n(CCc4ccccc4)c2C1)-c1ccccc1C3=O (centres undefined) , is recorded CC50 at 72 h strictly lower than 30 µM?
Outgoing: Not met

* * *

target: Casein kinase II (Homo sapiens, UniProt P19784+P67870+P68400); test: Inhibition of human recombinant CK2a1/CK2b holoenzyme expressed in Escherichia coli BL21(DE3) pre-incubated for 10 mins before substrate addition by capillary electrophoresis based assay
Sequence (P67870 whole entry): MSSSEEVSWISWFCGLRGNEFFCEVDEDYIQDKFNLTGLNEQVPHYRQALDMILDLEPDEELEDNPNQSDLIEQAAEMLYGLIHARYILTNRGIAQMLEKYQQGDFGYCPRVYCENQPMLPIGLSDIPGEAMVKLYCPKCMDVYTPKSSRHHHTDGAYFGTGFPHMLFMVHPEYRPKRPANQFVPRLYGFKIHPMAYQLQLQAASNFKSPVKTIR
Sequence (P68400 whole entry): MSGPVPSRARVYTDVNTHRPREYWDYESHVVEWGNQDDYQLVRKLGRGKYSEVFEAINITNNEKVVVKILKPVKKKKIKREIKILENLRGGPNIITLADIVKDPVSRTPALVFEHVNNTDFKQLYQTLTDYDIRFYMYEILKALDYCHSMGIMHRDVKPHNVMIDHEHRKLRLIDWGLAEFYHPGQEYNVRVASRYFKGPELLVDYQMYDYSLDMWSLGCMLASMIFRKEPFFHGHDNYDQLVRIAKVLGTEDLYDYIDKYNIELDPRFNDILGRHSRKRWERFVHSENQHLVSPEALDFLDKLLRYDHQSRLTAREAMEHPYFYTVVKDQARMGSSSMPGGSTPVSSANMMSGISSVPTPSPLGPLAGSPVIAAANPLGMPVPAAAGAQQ
Sequence (P19784 whole entry): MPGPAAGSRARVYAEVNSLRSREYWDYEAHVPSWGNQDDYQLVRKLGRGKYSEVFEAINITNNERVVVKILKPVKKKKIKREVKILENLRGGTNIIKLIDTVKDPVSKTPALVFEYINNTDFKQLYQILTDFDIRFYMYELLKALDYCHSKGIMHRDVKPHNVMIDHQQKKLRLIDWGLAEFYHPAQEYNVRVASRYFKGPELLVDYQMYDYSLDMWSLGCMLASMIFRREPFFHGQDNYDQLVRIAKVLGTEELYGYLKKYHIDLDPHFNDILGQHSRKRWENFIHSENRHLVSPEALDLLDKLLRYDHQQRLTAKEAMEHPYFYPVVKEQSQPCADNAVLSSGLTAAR
Observed Property: pIC50
Notebook: values listed as pIC50 are -log10 of the concentration (mol/L).

Please review the following examples before continuing.
Molecule	Observed Property	Measurement
O=C1CCCc2c1c1c(n2Cc2ccccc2)-c2ccccc2C1=O	pIC50	4.82
COc1cccc(CCn2c3c(c4c2-c2ccccc2C4=O)C(=O)CCC3)c1	pIC50	5.29
O=C1CC(c2ccccc2)Cc2c1c1c(n2CCc2ccccc2)-c2ccccc2C1=O (stereo not given)	pIC50	4.82
CC1CC(=O)c2c3c(n(Cc4ccccc4)c2C1)-c1ccccc1C3=O (stereo not given)	pIC50	4.46

Now for a further molecule.
Incoming: Supply recorded pIC50 for CC(C)n1c2c(c3c1-c1ccccc1C3=O)C(=O)C(Cc1ccccc1)(Cc1ccccc1)CC2 here.
Outgoing: 4.96

* * *

Biological target: Broad substrate specificity ATP-binding cassette transporter ABCG2 (Homo sapiens)
Sequence (Q9UNQ0 whole entry): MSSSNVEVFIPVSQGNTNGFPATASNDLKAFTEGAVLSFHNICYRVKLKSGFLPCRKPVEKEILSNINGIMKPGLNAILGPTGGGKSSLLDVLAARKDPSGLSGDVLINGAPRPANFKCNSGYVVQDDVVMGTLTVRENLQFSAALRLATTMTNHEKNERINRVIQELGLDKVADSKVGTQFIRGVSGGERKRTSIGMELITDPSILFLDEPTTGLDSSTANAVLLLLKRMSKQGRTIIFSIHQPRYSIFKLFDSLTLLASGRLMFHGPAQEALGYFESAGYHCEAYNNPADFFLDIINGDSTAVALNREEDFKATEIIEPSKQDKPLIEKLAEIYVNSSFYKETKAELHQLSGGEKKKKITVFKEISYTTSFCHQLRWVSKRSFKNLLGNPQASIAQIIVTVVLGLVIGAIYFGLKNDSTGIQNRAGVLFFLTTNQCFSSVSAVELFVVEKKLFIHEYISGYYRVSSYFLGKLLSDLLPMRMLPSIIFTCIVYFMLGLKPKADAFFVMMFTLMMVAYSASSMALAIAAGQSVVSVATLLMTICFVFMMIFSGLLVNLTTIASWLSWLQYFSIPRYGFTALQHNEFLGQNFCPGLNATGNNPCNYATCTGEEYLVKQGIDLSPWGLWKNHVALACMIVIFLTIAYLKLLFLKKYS
Assay: Inhibition of ABCG2 (unknown origin) expressed in HEK293 cells assessed as reduction in mitoxantrone efflux after 30 mins by FACS method
IC50 listing for selected compounds.
Reply with a number, then the unit it belongs to.

Please review the following examples before continuing.
Compound	IC50
O=C1CCCc2c1c1c(n2Cc2ccccc2)-c2ccccc2C1=O	30000 nM
O=C1CC(c2ccccc2)Cc2c1c1c(n2CCc2ccccc2)-c2ccccc2C1=O (stereo not given)	490 nM
COc1ccccc1CCn1c2c(c3c1-c1ccccc1C3=O)C(=O)CCC2	210 nM
CC1CC(=O)c2c3c(n(Cc4ccccc4)c2C1)-c1ccccc1C3=O (stereo not given)	15000 nM

Now for a further compound.
Incoming: Supply recorded IC50 for COc1cccc(CCn2c3c(c4c2-c2ccccc2C4=O)C(=O)CCC3)c1 here.
Outgoing: 310 nM

* * *

system: ABCG2; experiment: Selectivity index, ratio of IC50 for intrinsic cytotoxicity against HEK293 cells to IC50 for ABCG2 (unknown origin) expressed in HEK293 cells; format: toxicity, cell-based; conditions: human, HEK293 cells expressing ABCG2, read-out: Selectivity Index
selectivity ratio listing for selected compounds.
Give the figure by itself; no unit, no explanation.

Please review the following examples before continuing.
Compound	Measurement
O=C1CC(c2ccccc2)Cc2c1c1c(n2CCc2ccccc2)-c2ccccc2C1=O (configuration not stated)	41
CC(C)n1c2c(c3c1-c1ccccc1C3=O)C(=O)C(Cc1ccccc1)(Cc1ccccc1)CC2	10
COc1ccccc1CCn1c2c(c3c1-c1ccccc1C3=O)C(=O)CCC2	130
O=C1CCCc2c1c1c(n2CCc2ccccc2)-c2ccccc2C1=O	71
O=C1CC(c2ccccc2)Cc2c1c1c(n2Cc2ccccc2)-c2ccccc2C1=O (configuration not stated)	18

Now for a further compound.
Incoming: Send back ABCG2 selectivity ratio of COc1cccc(CCn2c3c(c4c2-c2ccccc2C4=O)C(=O)CCC3)c1 only.
Outgoing: 41

* * *

target: Broad substrate specificity ATP-binding cassette transporter ABCG2 (Homo sapiens); assay: Inhibition of ABCG2 (unknown origin) expressed in HEK293 cells assessed as reduction in mitoxantrone efflux after 30 mins by FACS method
Observed Property: IC50 (nM)
# output: bare number, implied unit nM

Please review the following examples before continuing.
Molecule	Observed Property	Measurement
COc1ccc(CCn2c3c(c4c2-c2ccccc2C4=O)C(=O)CCC3)cc1	IC50	700
CC(C)n1c2c(c3c1-c1ccccc1C3=O)C(=O)C(Cc1ccccc1)(Cc1ccccc1)CC2	IC50	610
CC1CC(=O)c2c3c(n(C(C)C)c2C1)-c1ccccc1C3=O (configuration not stated)	IC50	4100
CC(C)=CCOc1cccc2c1-c1c(c3c(n1C(C)C)CCCC3=O)C2=O	IC50	1600
CC1CCc2c(c3c(n2C(C)C)-c2ccccc2C3=O)C1=O (configuration not stated)	IC50	20000
CC(C)=CCOc1cccc2c1C(=O)c1c3c(n(C(C)C)c1-2)CCCC3=O	IC50	3000

Incoming: Supply recorded IC50 for CC(C)n1c2c(c3c1-c1ccccc1C3=O)C(=O)CCC2 here.
Outgoing: 35000

Incoming: Supply recorded IC50 for COc1ccc2[nH]cc(CCNC(=O)c3cc(=O)c4c(OCc5ccc(Br)cc5)cccc4o3)c2c1 here.
Outgoing: 130

Incoming: Supply recorded IC50 for O=C1CCCc2c1c1c(n2CCc2ccccc2)-c2ccccc2C1=O here.
Outgoing: 430

Incoming: Supply recorded IC50 for CC1CC(=O)c2c3c(n(CCc4ccccc4)c2C1)-c1ccccc1C3=O (configuration not stated) here.
Outgoing: 230

Incoming: Supply recorded IC50 for O=C1CCCc2c1c1c(n2CCCc2ccccc2)-c2ccccc2C1=O here.
Outgoing: 790

Incoming: Supply recorded IC50 for O=C1CC(c2ccccc2)Cc2c1c1c(n2Cc2ccccc2)-c2ccccc2C1=O (configuration not stated) here.
Outgoing: 960
